Give hemolysis at 1 h for every item shown.
- Test Method Notes: Hemolysis in human erythrocytes upto 100 uM after 1 hr
- Assay type: ADME, cell-based, Erythrocyte
- Condition Summary: read-out: Activity

>  <Smiles Entry>
CCCCCCCC[n+]1ccn(Cc2cc3ccccc3c(-c3c(O)c(Cn4cc[n+](CCCCCCCC)c4)cc4ccccc34)c2O)c1.O=S(=O)([N-]S(=O)(=O)C(F)(F)F)C(F)(F)F.O=S(=O)([N-]S(=O)(=O)C(F)(F)F)C(F)(F)F

>  <hemolysis at 1 h>
< 10%

$$$$
>  <Smiles Entry>
CCCCCCCCCCCC[n+]1ccn(Cc2cc3ccccc3c(-c3c(O)c(Cn4cc[n+](CCCCCCCCCCCC)c4)cc4ccccc34)c2O)c1.O=S(=O)([N-]S(=O)(=O)C(F)(F)F)C(F)(F)F.O=S(=O)([N-]S(=O)(=O)C(F)(F)F)C(F)(F)F

>  <hemolysis at 1 h>
< 10%

$$$$

Now for a further compound.
Notebook: "CCCC[n+]1ccn(Cc2cc3ccccc3c(-c3c(O)c(Cn4cc[n+](CCCC)c4)cc4ccccc34)c2O)c1.O=S(=O)([N-]S(=O)(=O)C(F)(F)F)C(F)(F)F.O=S(=O)([N-]S(=O)(=O)C(F)(F)F)C(F)(F)F" , hemolysis at 1 h read as < 10%

###

- Test Method Notes: Induction of chloride efflux in egg yolk phosphatidylcholine large unilamellar vesicles assessed as increase of lucigenin's fluorescence relative to EYPC
- Format: physicochemical
Give EC50 for every item shown.
One number for each entry, in %molar.

For orientation, consider the following solved cases.
>  <Smiles Entry>
CCCCCCCCCCCC[n+]1ccn(Cc2cc3ccccc3c(-c3c(O)c(Cn4cc[n+](CCCCCCCCCCCC)c4)cc4ccccc34)c2O)c1.O=S(=O)([N-]S(=O)(=O)C(F)(F)F)C(F)(F)F.O=S(=O)([N-]S(=O)(=O)C(F)(F)F)C(F)(F)F

>  <Units>
%molar

>  <EC50>
9.3

$$$$
>  <Smiles Entry>
CCCCCCCCCCCCCCCC[n+]1ccn(Cc2cc3ccccc3c(-c3c(O)c(Cn4cc[n+](CCCCCCCCCCCCCCCC)c4)cc4ccccc34)c2O)c1.O=S(=O)([N-]S(=O)(=O)C(F)(F)F)C(F)(F)F.O=S(=O)([N-]S(=O)(=O)C(F)(F)F)C(F)(F)F

>  <Units>
%molar

>  <EC50>
18.1

$$$$

Now for a further compound.
Notebook: "CCCCCCCC[n+]1ccn(Cc2cc3ccccc3c(-c3c(O)c(Cn4cc[n+](CCCCCCCC)c4)cc4ccccc34)c2O)c1.O=S(=O)([N-]S(=O)(=O)C(F)(F)F)C(F)(F)F.O=S(=O)([N-]S(=O)(=O)C(F)(F)F)C(F)(F)F" , EC50 read as 4.62
